experiment: Phase 1 Stage 1 clinical pharmacokinetics of SC ZA co-administered with rHuPH20; format: in vivo, human; settings: human, serum, sc, ZA 0.5 mg SC + 24000 U rHuPH20; individual subjects; read-out: MRT

# COMPOUND, MRT [h]
measured = [
    ("O=P(O)(O)C(O)(Cn1ccnc1)P(=O)(O)O [ZA]", 3.19),
]

* * *

experiment: Pharmacokinetics of ZA in pig serum after IV or SC infusion with or without rHuPH20 (LC-MS-MS, non-compartmental analysis); format: in vivo; conditions: female, Yorkshire, pig, serum, subcutaneous, […], pig 66, Study Group 3, SC, ZA […], rHuPH20 10000 U/mL, 100 mL over 16 min, time 2 h; read-out: Zoledronic Acid Serum Concentration
METRIC: concentration at 2 h (ng/mL)

# COMPOUND STRUCTURE, RECORDED VALUE
measured = [
    ("O=P(O)(O)C(O)(Cn1ccnc1)P(=O)(O)O", 23.2),
]
